- protocol_notes: Biodistribution of 99mTc(N)(X)(DTC)+ heterocomplexes in rats
- Assay type: in vivo, male Spraque-Dawley rats (SD rats)
- measurement_parameters: 2 min after injection
readout_kind: Liver % dose/g (% dose/g)

Answered cases to consult:
{"compound": "CSC1=[S+][99Tc-2]2(#[N])([NH]N1C)[P+](c1ccccc1)(c1ccccc1)CCOCC[P+]2(c1ccccc1)c1ccccc1 [^99mTc(N)(POP)(DTC)^+]", "Liver % dose/g / % dose/g": 4.821}
{"compound": "COCCN1CC[P+](c2ccccc2)(c2ccccc2)[99Tc-2]2(#[N])([NH]N(C)C(SC)=[S+]2)[P+](c2ccccc2)(c2ccccc2)CC1 [^99mTc(N)(PNP2)(DTC)^+]", "Liver % dose/g / % dose/g": 7.723}

[I] CCCN1CC[P+](c2ccccc2)(c2ccccc2)[99Tc-2]2(#[N])([NH]N(C)C(SC)=[S+]2)[P+](c2ccccc2)(c2ccccc2)CC1 [^99mTc(N)(PNP1)(DTC)^+]
[II] COCCC[P]1(CCCOC)CCN(CCOC)CC[P](CCCOC)(CCCOC)[99Tc+]12(#[N])[NH]N(C)C(SC)=[S]2 [^99mTc(N)(PNP3)(DTC)^+]
Ask: So which one has the bigger Liver % dose/g here, I or II ? # respond with the chosen item's label
Result: I
(I: 5.555 % dose/g, II: 2.778 % dose/g)

---

- protocol_notes: Biodistribution of 99mTc(N)(X)(DTC)+ heterocomplexes in rats
- Type: in vivo, male Spraque-Dawley rats (SD rats)
- measurement_parameters: 2 hr after injection
readout_kind: Intestine % dose/g (% dose/g)

{"compound": "CSC1=[S+][99Tc-2]2(#[N])([NH]N1C)[P+](c1ccccc1)(c1ccccc1)CCOCC[P+]2(c1ccccc1)c1ccccc1 [^99mTc(N)(POP)(DTC)^+]", "readout_kind": "Intestine % dose/g", "meas_value": 1.478}

[I] CCCN1CC[P+](c2ccccc2)(c2ccccc2)[99Tc-2]2(#[N])([NH]N(C)C(SC)=[S+]2)[P+](c2ccccc2)(c2ccccc2)CC1 [^99mTc(N)(PNP1)(DTC)^+]
[II] COCCC[P]1(CCCOC)CCN(CCOC)CC[P](CCCOC)(CCCOC)[99Tc+]12(#[N])[NH]N(C)C(SC)=[S]2 [^99mTc(N)(PNP3)(DTC)^+]
[III] COCCN1CC[P+](c2ccccc2)(c2ccccc2)[99Tc-2]2(#[N])([NH]N(C)C(SC)=[S+]2)[P+](c2ccccc2)(c2ccccc2)CC1 [^99mTc(N)(PNP2)(DTC)^+]
Ask: Output the entries ranked by Intestine % dose/g from maximum down to minimum. Use the labels to give the ranking in the order requested.
Result: III, II, I

---

- protocol_notes: Biodistribution of 99mTc(N)(X)(DTC)+ heterocomplexes in rats
- Assay type: in vivo, male Spraque-Dawley rats (SD rats)
- measurement_parameters: 2 hr after injection
readout_kind: Spleen % dose/g (% dose/g)

Answered cases to consult:
{"compound": "CSC1=[S+][99Tc-2]2(#[N])([NH]N1C)[P+](c1ccccc1)(c1ccccc1)CCOCC[P+]2(c1ccccc1)c1ccccc1 [^99mTc(N)(POP)(DTC)^+]", "meas_value": 4.32}
{"compound": "CCCN1CC[P+](c2ccccc2)(c2ccccc2)[99Tc-2]2(#[N])([NH]N(C)C(SC)=[S+]2)[P+](c2ccccc2)(c2ccccc2)CC1 [^99mTc(N)(PNP1)(DTC)^+]", "meas_value": 4.747}

[a] COCCN1CC[P+](c2ccccc2)(c2ccccc2)[99Tc-2]2(#[N])([NH]N(C)C(SC)=[S+]2)[P+](c2ccccc2)(c2ccccc2)CC1 [^99mTc(N)(PNP2)(DTC)^+]
[b] COCCC[P]1(CCCOC)CCN(CCOC)CC[P](CCCOC)(CCCOC)[99Tc+]12(#[N])[NH]N(C)C(SC)=[S]2 [^99mTc(N)(PNP3)(DTC)^+]
Ask: Hello, I am sorting some records. Could you say if a or b has the smaller Spleen % dose/g value? # respond with the chosen item's label
Result: b
(b: 0.300 % dose/g, a: 5.507 % dose/g)

---

- protocol_notes: Biodistribution of 99mTc(N)(X)(DTC)+ heterocomplexes in rats
- Format: in vivo, male Spraque-Dawley rats (SD rats)
- measurement_parameters: 1 hr after injection
readout_kind: Bone % dose/g (% dose/g)

Answered cases to consult:
{"compound": "COCCN1CC[P+](c2ccccc2)(c2ccccc2)[99Tc-2]2(#[N])([NH]N(C)C(SC)=[S+]2)[P+](c2ccccc2)(c2ccccc2)CC1 [^99mTc(N)(PNP2)(DTC)^+]", "measurement_unit": "% dose/g", "meas_value": 0.294}
{"compound": "CSC1=[S+][99Tc-2]2(#[N])([NH]N1C)[P+](c1ccccc1)(c1ccccc1)CCOCC[P+]2(c1ccccc1)c1ccccc1 [^99mTc(N)(POP)(DTC)^+]", "measurement_unit": "% dose/g", "meas_value": 0.327}

[A] COCCC[P]1(CCCOC)CCN(CCOC)CC[P](CCCOC)(CCCOC)[99Tc+]12(#[N])[NH]N(C)C(SC)=[S]2 [^99mTc(N)(PNP3)(DTC)^+]
[B] CCCN1CC[P+](c2ccccc2)(c2ccccc2)[99Tc-2]2(#[N])([NH]N(C)C(SC)=[S+]2)[P+](c2ccccc2)(c2ccccc2)CC1 [^99mTc(N)(PNP1)(DTC)^+]
Ask: So which one has the bigger Bone % dose/g here, A or B ? # respond with the chosen item's label
Result: B
(B: 0.398 % dose/g, A: 0.099 % dose/g)

---

- protocol_notes: Biodistribution of 99mTc(N)(X)(DTC)+ heterocomplexes in rats
- Format: in vivo, male Spraque-Dawley rats (SD rats)
- measurement_parameters: 1 hr after injection
readout_kind: Intestine % dose/g (% dose/g)

{"compound": "COCCN1CC[P+](c2ccccc2)(c2ccccc2)[99Tc-2]2(#[N])([NH]N(C)C(SC)=[S+]2)[P+](c2ccccc2)(c2ccccc2)CC1 [^99mTc(N)(PNP2)(DTC)^+]", "Intestine % dose/g [% dose/g]": 7.644}
{"compound": "CSC1=[S+][99Tc-2]2(#[N])([NH]N1C)[P+](c1ccccc1)(c1ccccc1)CCOCC[P+]2(c1ccccc1)c1ccccc1 [^99mTc(N)(POP)(DTC)^+]", "Intestine % dose/g [% dose/g]": 1.236}

[P] CCCN1CC[P+](c2ccccc2)(c2ccccc2)[99Tc-2]2(#[N])([NH]N(C)C(SC)=[S+]2)[P+](c2ccccc2)(c2ccccc2)CC1 [^99mTc(N)(PNP1)(DTC)^+]
[Q] COCCC[P]1(CCCOC)CCN(CCOC)CC[P](CCCOC)(CCCOC)[99Tc+]12(#[N])[NH]N(C)C(SC)=[S]2 [^99mTc(N)(PNP3)(DTC)^+]
Ask: So which one has the bigger Intestine % dose/g here, P or Q ? # respond with the chosen item's label
Result: Q
(Q: 5.447 % dose/g, P: 0.896 % dose/g)

---

- protocol_notes: Biodistribution of 99mTc(N)(X)(DTC)+ heterocomplexes in rats
- Format: in vivo, male Spraque-Dawley rats (SD rats)
readout_kind: Liver % dose/g (% dose/g)

{"compound": "CSC1=[S+][99Tc-2]2(#[N])([NH]N1C)[P+](c1ccccc1)(c1ccccc1)CCOCC[P+]2(c1ccccc1)c1ccccc1 [^99mTc(N)(POP)(DTC)^+]", "meas_value": 3.662}
{"compound": "CCCN1CC[P+](c2ccccc2)(c2ccccc2)[99Tc-2]2(#[N])([NH]N(C)C(SC)=[S+]2)[P+](c2ccccc2)(c2ccccc2)CC1 [^99mTc(N)(PNP1)(DTC)^+]", "meas_value": 3.593}

[a] COCCN1CC[P+](c2ccccc2)(c2ccccc2)[99Tc-2]2(#[N])([NH]N(C)C(SC)=[S+]2)[P+](c2ccccc2)(c2ccccc2)CC1 [^99mTc(N)(PNP2)(DTC)^+]
[b] COCCC[P]1(CCCOC)CCN(CCOC)CC[P](CCCOC)(CCCOC)[99Tc+]12(#[N])[NH]N(C)C(SC)=[S]2 [^99mTc(N)(PNP3)(DTC)^+]
Ask: So which one has the bigger Liver % dose/g here, a or b ? # respond with the chosen item's label
Result: a

---

- protocol_notes: Biodistribution of 99mTc(N)(X)(DTC)+ heterocomplexes in rats
- Type: in vivo, male Spraque-Dawley rats (SD rats)
- measurement_parameters: 2 min after injection
readout_kind: Intestine % dose/g (% dose/g)

Answered cases to consult:
{"compound": "COCCC[P]1(CCCOC)CCN(CCOC)CC[P](CCCOC)(CCCOC)[99Tc+]12(#[N])[NH]N(C)C(SC)=[S]2 [^99mTc(N)(PNP3)(DTC)^+]", "meas_value": 4.188}
{"compound": "CSC1=[S+][99Tc-2]2(#[N])([NH]N1C)[P+](c1ccccc1)(c1ccccc1)CCOCC[P+]2(c1ccccc1)c1ccccc1 [^99mTc(N)(POP)(DTC)^+]", "meas_value": 0.581}

[I] COCCN1CC[P+](c2ccccc2)(c2ccccc2)[99Tc-2]2(#[N])([NH]N(C)C(SC)=[S+]2)[P+](c2ccccc2)(c2ccccc2)CC1 [^99mTc(N)(PNP2)(DTC)^+]
[II] CCCN1CC[P+](c2ccccc2)(c2ccccc2)[99Tc-2]2(#[N])([NH]N(C)C(SC)=[S+]2)[P+](c2ccccc2)(c2ccccc2)CC1 [^99mTc(N)(PNP1)(DTC)^+]
Ask: Hello, I am sorting some records. Could you say if I or II has the smaller Intestine % dose/g value? # respond with the chosen item's label
Result: II
(II: 0.471 % dose/g, I: 1.694 % dose/g)

Each recorded value in this set is attributed to patent US20020048549A1.
